- Target or system: Mcl-1H205A (Homo sapiens, UniProt Q07820, H224A)
- Construct: implied by Ni2+-NTA purification from pET-43.1a(+))
- Sequence (Q07820 172-327 H224A): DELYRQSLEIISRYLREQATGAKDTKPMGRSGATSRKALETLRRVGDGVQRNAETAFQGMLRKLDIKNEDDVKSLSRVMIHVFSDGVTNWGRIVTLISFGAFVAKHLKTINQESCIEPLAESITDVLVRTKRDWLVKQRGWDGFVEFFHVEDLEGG
- Assay protocol: FPA competition assay, mutant Mcl-1 H205A
Readout kind: Ki (µM)
Kindly answer with a numeric value in µM, unit omitted.

Request: Recall the reported Ki of O=C1N=C(N2CCN(CCO)CC2)S/C1=C\c1ccc(-c2ccccc2)cc1 [Comp8] when tested on Mcl-1H205A (Homo sapiens, UniProt Q07820, H224A).
Result: 1.24

====

- Target or system: Mcl-1N241A (Homo sapiens, UniProt Q07820, N260A)
- Construct: implied by Ni2+-NTA purification from pET-43.1a(+))
- Sequence (Q07820 172-327 N260A): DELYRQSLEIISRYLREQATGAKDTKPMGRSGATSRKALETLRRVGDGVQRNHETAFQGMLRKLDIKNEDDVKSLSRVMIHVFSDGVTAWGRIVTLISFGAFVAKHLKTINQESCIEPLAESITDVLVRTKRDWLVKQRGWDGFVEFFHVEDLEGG
- Assay protocol: FPA competition assay, mutant Mcl-1 N241A
Readout kind: Ki (µM)
Hi! Could you send only the number? It should be in µM, unit omitted.

Request: Provide only the value of recorded Ki for `O=C1N=C(N2CCN(CCO)CC2)S/C1=C\c1ccc(-c2ccccc2)cc1`
Result: 1.95

====

- Target or system: Mcl-1WT (Homo sapiens)
- Sequence (Q07820 172-327): as the sequence (Q07820 172-327 N260A) above, with A89N counted along it
Readout kind: Ki (µM)
Please respond with the number in µM and leave the unit unwritten.

Request: Please report Ki with Mcl-1WT (Homo sapiens) for item O=C1N=C(N2CCN(CCO)CC2)S/C1=C\c1ccc(-c2ccccc2)cc1 [Comp8] .
Result: 0.3

====

- Target or system: Mcl-1D237A (Homo sapiens, UniProt Q07820, D256A)
- Construct: implied by Ni2+-NTA purification from pET-43.1a(+))
- Sequence (Q07820 172-327 D256A): as the sequence (Q07820 172-327 N260A) above, with D85A, A89N counted along it
- Assay protocol: FPA competition assay, mutant Mcl-1 D237A
Readout kind: Ki (µM)
Quick reminder: number only, in µM, skip the unit.

Request: Check the records and state Ki for O=C1N=C(N2CCN(CCO)CC2)S/C1=C\c1ccc(-c2ccccc2)cc1 [Comp8]
Result: 1.98
